Source listed as ChEMBL document CHEMBL1201862.

test system: K562; assay: NCI tumour cell line growth inhibition, 48 h
The source made the active and inactive calls. No stated cut-off is given here; in the data, active = GI50 up to about 1.1 µM and inactive = higher.
recordedEndpoint: GI50

>  <compound>
CC1CCC2C(C)(C)CC3(C)CCC1C23O (centres undefined)

>  <systemUnderTest>
K562

>  <recordedEndpoint>
GI50

>  <measured>
12.4 µM (inactive)

$$$$
>  <compound>
C[Si](C)(c1ccc(C(=O)O)cc1)c1ccc(C(=O)O)cc1

>  <systemUnderTest>
K562

>  <recordedEndpoint>
GI50

>  <measured>
> 100 µM (inactive)

$$$$
>  <compound>
CC1Cn2c(nc3ccccc32)NC1=O (centres undefined)

>  <systemUnderTest>
K562

>  <recordedEndpoint>
GI50

>  <measured>
> 100 µM (inactive)

$$$$
>  <compound>
O=C(Cn1c(=O)ccn(C2OC(CO)C(O)C2F)c1=O)c1ccc(F)cc1 (centres undefined)

>  <systemUnderTest>
K562

>  <recordedEndpoint>
GI50

>  <measured>
> 100 µM (inactive)

$$$$
>  <compound>
NS(=O)(=O)c1nn2c(Br)c(-c3ccccc3)nc2s1

>  <systemUnderTest>
K562

>  <recordedEndpoint>
GI50

>  <measured>
2.2 µM (inactive)

$$$$
>  <compound>
Cc1ccc(C(=O)Nc2ccc(CP(=O)(O)O)cc2CP(=O)(O)O)cc1NC(=O)c1cccc(NC(=O)Nc2cccc(C(=O)Nc3cc(C(=O)Nc4ccc(CP(=O)(O)O)cc4CP(=O)(O)O)ccc3C)c2)c1

>  <systemUnderTest>
K562

>  <recordedEndpoint>
GI50

>  <measured>
> 100 µM (inactive)

$$$$
>  <compound>
CC(=O)N(N=O)c1ccc(N(N=O)C(C)=O)cc1

>  <systemUnderTest>
K562

>  <recordedEndpoint>
GI50

>  <measured>
> 100 µM (inactive)

$$$$
>  <compound>
CCOC(=O)N1CCC2(CC1)C[C@](C)(C(C)=O)C(C)O2 (some centres undefined)

>  <systemUnderTest>
K562

>  <recordedEndpoint>
GI50

>  <measured>
> 100 µM (inactive)

$$$$
>  <compound>
CC(C)[C@@H]1CC[C@@H](C)C[C@H]1OC(=O)/C=C1\C(C(=O)O[C@@H]2C[C@H](C)CC[C@H]2C(C)C)[C@H]2C=C[C@@H]1O2 (some centres undefined)

>  <systemUnderTest>
K562

>  <recordedEndpoint>
GI50

>  <measured>
33.4 µM (inactive)

$$$$

---

tested on: SK-MEL-2; test: NCI tumour cell line growth inhibition, 48 h
The source made the active and inactive calls. No stated cut-off is given here; in the data, active = GI50 up to about 1.1 µM and inactive = higher.
Labels: true (active), false (inactive)

>  <compound>
COC1=CC(=O)OC(/C=C(C)/C=C/C2=C(C)CCCC2(C)C)C1 (centres undefined)

>  <answerLabel>
false

$$$$
>  <compound>
Oc1nc(S)nc2c1C(c1ccc(Cl)cc1)c1c(O)nc(S)nc1O2

>  <answerLabel>
false

$$$$
>  <compound>
COC(=O)/C=C1\C(=O)Nc2ccc(Br)cc21

>  <answerLabel>
true

$$$$
>  <compound>
CN(Cc1ccccc1)c1nc(=[N+](C)C)ss1

>  <answerLabel>
false

$$$$
>  <compound>
Cc1ccc(NC(=O)/C(Cc2cc(=O)oc3cc(O)ccc23)=N\NC(=O)C[N+](C)(C)C)cc1C

>  <answerLabel>
false

$$$$
>  <compound>
O=c1c2ccccc2nc(-c2cccc([N+](=O)[O-])c2)n1O

>  <answerLabel>
false

$$$$
>  <compound>
CC(C)=C[C@H]1C[C@H](C)[C@H]2CC[C@H](C)c3c2c1c(C)c1ncoc31

>  <answerLabel>
false

$$$$
>  <compound>
O=C1CCSC2=C1SCc1sccc12

>  <answerLabel>
false

$$$$
>  <compound>
CCOC(=O)N(NC(=O)NC(C)C)c1ccccc1

>  <answerLabel>
false

$$$$
>  <compound>
CCOC1C(Br)Cn2c(=O)c3cc4ccccc4cc3c(=O)n2C1C (centres undefined)

>  <answerLabel>
false

$$$$
>  <compound>
COc1cc(CNc2nc3ccc(C(F)(F)F)cc3nc2-c2ccccc2)cc(OC)c1OC

>  <answerLabel>
false

$$$$
>  <compound>
COC(=O)Oc1nn(C(=O)OC)c(=O)c2ccccc12

>  <answerLabel>
false

$$$$
>  <compound>
COc1cc(C(c2ccc3c(c2)OCO3)N2C(=O)CCC2C(=O)O)cc(OC)c1OC (centres undefined)

>  <answerLabel>
false

$$$$
>  <compound>
CCCCCCCCCCNCCSSCc1ccc(Cl)cc1

>  <answerLabel>
true

$$$$
>  <compound>
CC1CCC2(C)C(CC=C(C=O)C2(O)C=O)C12CO2 (centres undefined)

>  <answerLabel>
false

$$$$
>  <compound>
CC1=C(C(=O)N(C)c2ccc(Cl)c(C(=O)OC(C)C)c2)SCCO1

>  <answerLabel>
false

$$$$
>  <compound>
Cc1cc(NS(=O)(=O)c2ccc(Nc3c4ccccc4nc4c(C(=O)NCCN(C)C)ccc(Cl)c34)cc2)no1

>  <answerLabel>
false

$$$$
>  <compound>
O=C1/C(=N\n2c(S)nnc2-c2ccncc2)c2cc(Cl)ccc2N1CN1CCCCC1

>  <answerLabel>
false

$$$$
>  <compound>
CCOc1cc2c(cnc3c4cc(OC)c(OC)cc4ccc23)cc1OC

>  <answerLabel>
false

$$$$

---

test system: KM12; test: NCI tumour cell line growth inhibition, 48 h
Activity calls are given as the source filed them. Rule as the data show it: active = GI50 up to about 1.1 µM and inactive = higher.

>  <compound>
CCOC(=O)CC1C(O)C(=O)N(C)C1c1ccccc1 (stereo not given)

>  <systemUnderTest>
KM12

>  <GI50>
> 100 µM (inactive)

$$$$
>  <compound>
CCOC(=O)CC[C@H](N)C(=O)N[C@@H](Cc1ccc(N(CCCl)CCCl)cc1)C(=O)OCC

>  <systemUnderTest>
KM12

>  <GI50>
4.61 µM (inactive)

$$$$
>  <compound>
CC(=O)N1c2ccccc2C2=CC3C4C(=O)N(c5ccccc5)C(=O)C4C21C1C(=O)N(c2ccccc2)C(=O)C31 (stereo not given)

>  <systemUnderTest>
KM12

>  <GI50>
35.6 µM (inactive)

$$$$
>  <compound>
O=c1oc2c(O)c(O)c(O)c3c(=O)oc4c(O)c(O)cc1c4c23

>  <systemUnderTest>
KM12

>  <GI50>
> 100 µM (inactive)

$$$$
>  <compound>
CC(NNC(=O)c1ccncc1)c1cccc(C(F)(F)F)c1 (stereo not given)

>  <systemUnderTest>
KM12

>  <GI50>
> 100 µM (inactive)

$$$$

---

system: NCI-H522; test: NCI tumour cell line growth inhibition, 48 h
The source made the active and inactive calls. No stated cut-off is given here; in the data, active = GI50 up to about 1.1 µM and inactive = higher.

>  <molecule>
CCOC(=O)c1c(Cl)nc2ccccc2c1N=[N+]=[N-]

>  <GI50>
16.7 µM (inactive)

$$$$
>  <molecule>
Cc1ccc2c(c1)C(=O)C(Cc1ccccc1C(=O)O)C2 (configuration not stated)

>  <GI50>
> 100 µM (inactive)

$$$$
>  <molecule>
O=[N+]([O-])CC(SCc1ccccc1)c1ccc2c(c1)OCO2 (configuration not stated)

>  <GI50>
11.5 µM (inactive)

$$$$
>  <molecule>
Nc1cccc2cc(S(=O)(=O)Nc3ccc(C(=O)O)cc3)ccc12

>  <GI50>
> 100 µM (inactive)

$$$$
>  <molecule>
c1ccc2sc(C3(N4CCC5(CC4)OCCO5)CCCCC3)cc2c1

>  <GI50>
78 µM (inactive)

$$$$
>  <molecule>
Brc1c2c(c(Br)c3nsnc13)N=S=N2

>  <GI50>
23.4 µM (inactive)

$$$$
>  <molecule>
CC[As](CC)SCC1OC(OC(C)=O)C(OC(C)=O)C(OC(C)=O)C1OC(C)=O (configuration not stated)

>  <GI50>
1.75 µM (inactive)

$$$$
>  <molecule>
CC[C@@H](CCCC[C@@H]1CC[C@H]2CC(=O)C[C@@H]12)OC

>  <GI50>
> 100 µM (inactive)

$$$$
>  <molecule>
Cc1ccc2c(c1)CN(C(=O)CCC(=O)OCc1ccccc1)c1ccc(C)cc1CN2C(=O)CCC(=O)OCc1ccccc1

>  <GI50>
> 100 µM (inactive)

$$$$
>  <molecule>
CC(NNC(=O)c1ccncc1)c1cccc(C(F)(F)F)c1 (configuration not stated)

>  <GI50>
> 100 µM (inactive)

$$$$
>  <molecule>
O=C(NCCCCCCCCCCCCNC(=O)c1cnc2ccccc2n1)c1cnc2ccccc2n1

>  <GI50>
19 µM (inactive)

$$$$
>  <molecule>
O=C(NN1C(=O)C=CC1=O)c1ccccc1Nc1ccccc1C(=O)NN1C(=O)C=CC1=O

>  <GI50>
> 100 µM (inactive)

$$$$
>  <molecule>
C[C@H]1O[C@@H](O[C@H]2[C@@H](O)C[C@H](O[C@H]3[C@@H](O)C[C@H](O[C@H]4CC[C@@]5(C)[C@H](CC[C@@H]6[C@@H]5CC[C@]5(C)[C@@H](C7=CC(=O)OC7)[C@@H](O)C[C@]65O)C4)O[C@@H]3C)O[C@@H]2C)C[C@H](O)[C@@H]1O [GITOXIN]

>  <GI50>
0.0238 µM (active)

$$$$
>  <molecule>
C1=CCN(c2ccccc2)CC1

>  <GI50>
16.3 µM (inactive)

$$$$
>  <molecule>
O=C1CCCC1C(O)(C(F)(F)Cl)C(F)(F)Cl (configuration not stated)

>  <GI50>
> 10 µM (inactive)

$$$$
>  <molecule>
Nc1ccc(Oc2ccc(C34CC5CC6C3CC3CC4C(C5)C6(c4ccc(Oc5ccc(N)c(O)c5)cc4)C3)cc2)cc1O

>  <GI50>
1.61 µM (inactive)

$$$$
>  <molecule>
CCOC(=O)c1ccc(/N=C\c2ccc(N(CCC#N)CCC#N)cc2)cc1

>  <GI50>
49.5 µM (inactive)

$$$$
>  <molecule>
COc1cc(CNc2nc3ccc(C(F)(F)F)cc3nc2-c2ccccc2)cc(OC)c1OC

>  <GI50>
11.5 µM (inactive)

$$$$
>  <molecule>
N#CC(C#N)=C1CCC2C(=C(C#N)C#N)CCC12 (configuration not stated)

>  <GI50>
> 100 µM (inactive)

$$$$
>  <molecule>
CN(Cc1ccccc1)c1nc(=[N+](C)C)ss1

>  <GI50>
41.1 µM (inactive)

$$$$
>  <molecule>
CCOC(=O)N1CCC2(CC1)C[C@](C)(C(C)=O)C(C)O2 (some centres not stated)

>  <GI50>
> 100 µM (inactive)

$$$$
>  <molecule>
O=C1CCCC/C1=C/C=C/c1ccccc1

>  <GI50>
30.7 µM (inactive)

$$$$
>  <molecule>
NC1=NNC(=O)c2nnc3c(C(=O)O)cnn3c2S1

>  <GI50>
> 100 µM (inactive)

$$$$
>  <molecule>
CC(=O)OC1CC[C@]2(C)C3CC[C@@]4(C)C(CCC4[C@H](C)CCCC(C)C)[C@@H]3CCC2(Br)C1 (some centres not stated)

>  <GI50>
10.3 µM (inactive)

$$$$
>  <molecule>
O=C(c1ccco1)N(C(=S)N1CCN(c2ccccn2)CC1)C1CCCCC1

>  <GI50>
> 100 µM (inactive)

$$$$
>  <molecule>
O=C(O)C1CC2C=CCC(C2)C1 (configuration not stated)

>  <GI50>
> 100 µM (inactive)

$$$$
>  <molecule>
Oc1ccccc1-c1nnc(S)n1/N=C/c1ccc(-c2ccc(Br)cc2)o1

>  <GI50>
60.4 µM (inactive)

$$$$
